Numbers sourced from PubChem BioAssay AID1745844.

system: rodent lifetime carcinogenesis bioassay, tumor incidence TD50; assay: carcinogenic potency in animals, long-term in vivo studies, CPDB compilation (AID 1745844); conditions: mouse; strain Charles River CD1; females; inhaled; site: liver; lesion: hemangiosarcoma; dosed 52 weeks; study length 52 weeks
measured_quantity: TD50

I looked up C=C(Cl)Cl and its TD50 for rodent lifetime carcinogenesis bioassay, tumor incidence TD50 was 170 mg/kg/day

---

system: rodent lifetime carcinogenesis bioassay, tumor incidence TD50; assay: carcinogenic potency in animals, long-term in vivo studies, CPDB compilation (AID 1745844); conditions: rat; strain ACI; females; in feed; site: colorectum; lesion: adenoma; dosed 68 weeks; study length 68 weeks
measured_quantity: TD50

For this compound ( CCOC(=O)c1ccc(N)cc1 ), measured TD50 is 977 mg/kg/day
